# MEASUREMENT_TARGET: T1, Bbc1, P47068
# T1 sequence (P47068 1-78, looked up): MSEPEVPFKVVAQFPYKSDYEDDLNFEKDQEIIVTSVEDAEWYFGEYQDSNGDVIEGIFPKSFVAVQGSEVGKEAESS
# ASSAY_REMARKS: SPOT array
# MEASUREMENT_CONTEXT: median of control spots 796
ENDPOINT: SPOT intensity

BINDER	SPOT intensity
STPQTMRQAPKRPDA	8
NSVPIMPTLPPRPYI	109
ISRRRLPVIMHRLKM	26
RRRRRPHRIERPLSN	515
RPVPRRPSQPLNTLS	423

a = LLGRKRPVMERVVDI
b = QQEQNTPPLPPKPKS
I'd appreciate it if you could identify which of a and b has the greater SPOT intensity. Response format: the label of the selected entry.
a

Source listed as paper PMC2756588.
